Attribution: PubChem BioAssay AID1259418

Test: inhibitors of Toxoplasma growth in IFN-γ-primed HeLa – cell-based, ME49Luc, luciferase, 72 h, dose response (AID 1259418)
Settings: T. gondii ME49Luc in IFN-y HeLa, stronger effect = lower value, -100% = high-dose IFN-γ control wells; at 19.5 µM unless noted
The whole screen tested about 3,400 compounds, of which about 840 (25%) were called active. Roughly 11% stayed inconclusive and do not appear here. These entries were drawn from the full list. Potency and affinity values are given separately.

{"columns": ["COMPOUND", "max activity"],
 "data": [
  ["Cc1ccc(C)c(-c2coc(-c3ccc(NC(=O)c4ccc(Br)o4)cc3)n2)c1", "9.77% [at 10 µM] (inactive)"],
  ["CCOc1ccccc1CNc1nc(-c2ccc(OC)cc2)nc2ccccc12", "-11.7% [at 0.35 µM] (inactive)"],
  ["Cc1ccc(-c2coc(-c3ccc(NC(=O)COc4ccccc4C)cc3)n2)c(C)c1", "-20.2% [at 1.35 µM] (inactive)"],
  ["COc1ccccc1-c1noc(C2CCCN2C(=O)c2ccc3cc[nH]c3c2)n1 (stereo not given)", "14.5% [at 10 µM] (inactive)"],
  ["COc1ccccc1-c1noc(C2CCCN2C(=O)Cc2c[nH]c3ccccc23)n1 (stereo not given)", "-7.96% [at 0.35 µM] (inactive)"]
]}

###

Reported max activity values are given for each entry in this list.
Experiment: inhibitors of Toxoplasma growth in IFN-γ-primed HeLa – cell-based, ME49Luc, luciferase, 72 h, dose response (AID 1259418)
Conditions: T. gondii ME49Luc in IFN-y HeLa, stronger effect = lower value, -100% = high-dose IFN-γ control wells; at 19.5 µM unless noted
In all, about 3,400 compounds went through this assay and about 840 (25%) were called active. About 11% were inconclusive and are not listed. A selection follows. Potency and affinity values are given separately.

{"columns": ["COMPOUND", "max activity"],
 "data": [
  ["CCCCNC(=O)CCC1N=C2c3ccccc3N=C(SCc3ccc(C)cc3)N2C1=O (stereo not given)", "25.3% [at 2.6 µM] (inactive)"],
  ["O=C(CCC1N=C2c3ccccc3N=C(SCc3cccc(F)c3)N2C1=O)NC1CCCCC1 (stereo not given)", "-18.1% [at 2.6 µM] (inactive)"],
  ["COC(=O)c1sccc1S(=O)(=O)N[C@@H]1CC[C@@H](N)C1", "17.5% (inactive)"],
  ["COc1ccc(CNS(=O)(=O)c2cc3c4c(c2)CCC(=O)N4CCC3)cc1", "-13.1% [at 10 µM] (inactive)"],
  ["COc1ccccc1-c1nc(Cn2nnc(-c3nc(-c4ccccc4)no3)c2C)c(C)o1", "-9.24% [at 1.35 µM] (inactive)"],
  ["Cc1csc(-c2csc(S(=O)(=O)N3CCC(Cc4ccccc4)CC3)c2)n1", "-14% [at 0.35 µM] (inactive)"],
  ["CCOC(=O)C(=O)Nc1ccc(-c2nc(-c3cc(C)ccc3C)co2)cc1", "15.3% [at 0.16 µM] (inactive)"],
  ["Cc1ccc(-c2noc(-c3nnn(Cc4nc(-c5ccccc5)oc4C)c3C)n2)cc1C", "6.16% (inactive)"],
  ["COc1cc(OC)cc(-c2noc(-c3nnn(Cc4nc(-c5ccc(C)cc5)oc4C)c3C)n2)c1", "10.5% [at 0.16 µM] (inactive)"],
  ["CCOC(=O)CSC1=Nc2ccccc2C2=NC(CC(=O)NCCc3ccccc3)C(=O)N12 (stereo not given)", "64.6% (inactive)"],
  ["Cc1ccc(NS(=O)(=O)c2cc3c4c(c2)CCC(=O)N4CCC3)c(C)c1", "4.48% [at 2.6 µM] (inactive)"],
  ["Cc1ccc(CSC2=Nc3ccccc3C3=NC(CCC(=O)NC4CCCCC4)C(=O)N23)cc1 (stereo not given)", "-23.8% (inactive)"],
  ["COc1ccc(-c2nc(NCC3CCN(Cc4cccc(Cl)c4)CC3)c3ccccc3n2)cc1", "-31.6% [at 10 µM] (inactive)"],
  ["O=C1CCc2cc(S(=O)(=O)Nc3ccc4c(c3)OCCO4)cc3c2N1CCC3", "-30% [at 0.16 µM] (inactive)"],
  ["O=C(CC1N=C2c3ccccc3N=C(SCc3cccc(Cl)c3)N2C1=O)NCc1ccc2c(c1)OCO2 (stereo not given)", "19.4% [at 10 µM] (inactive)"],
  ["O=C1CCc2cc(S(=O)(=O)NCc3ccc4c(c3)OCO4)cc3c2N1CCC3", "-19.9% [at 2.6 µM] (inactive)"],
  ["Cc1oc(-c2cccc(Cl)c2)nc1CSc1nc2c(c(=O)[nH]1)CN(C(C)C)CC2", "17.7% [at 0.68 µM] (inactive)"],
  ["Cc1ccc(NS(=O)(=O)c2cc3c4c(c2)CCC(=O)N4CCC3)cc1C", "-11.9% (inactive)"],
  ["Cc1cccc(C)c1NS(=O)(=O)c1cc2c3c(c1)CCC(=O)N3CCC2", "-22% (inactive)"],
  ["COc1ccc(-c2nc(NCC3CCN(Cc4cccc(C)c4)CC3)c3ccccc3n2)cc1", "-18.6% [at 2.6 µM] (inactive)"]
]}

###

Test: inhibitors of Toxoplasma growth in IFN-γ-primed HeLa – cell-based, ME49Luc, luciferase, 72 h, dose response (AID 1259418)
Settings: T. gondii ME49Luc in IFN-y HeLa, stronger effect = lower value, -100% = high-dose IFN-γ control wells; at 19.5 µM unless noted
About 840 (25%) of roughly 3,400 compounds were called active. About 11% were inconclusive and are not listed. Not all results are given here. Measured potencies and affinities stand elsewhere.

{"columns": ["COMPOUND", "max activity"],
 "data": [
  ["COc1ccc(-c2nc(NCCN(Cc3ccco3)C3CCCC3)c3ccccc3n2)cc1", "-27.6% [at 2.6 µM] (inactive)"],
  ["CCS(=O)(=O)N1[C@H](CO)[C@@H](c2ccc(C#Cc3ccccc3F)cc2)[C@@H]1C#N", "8.21% [at 10 µM] (inactive)"],
  ["COc1ccc(NC(=O)CN2CCC3(CC2)N=C(c2ccc(Cl)cc2)C(=O)N3)cc1", "-12.9% [at 0.68 µM] (inactive)"],
  ["CC1CCCCN1C(=O)c1ccnn1-c1ccc2ccc(-c3ccccc3)cn12 (stereo unspecified)", "31.6% (inactive)"],
  ["COc1ccccc1-c1nc(C)c(-c2ccc(SCc3ccc(F)cc3)nn2)s1", "7.01% [at 0.35 µM] (inactive)"],
  ["CCCCNc1nc(-c2ccc(OC)cc2)nc2ccccc12", "22.7% (inactive)"],
  ["COc1ccc(N(Cc2nc(-c3cccc(C)c3)oc2C)S(=O)(=O)c2ccc(C)cc2)cc1", "-7.34% [at 1.35 µM] (inactive)"],
  ["CN1C(=O)CCc2cc(NC(=O)C3CCCCC3)ccc21", "40.8% (inactive)"],
  ["CN1C(=O)CCc2cc(NC(=O)C3CCC3)ccc21", "8.04% (inactive)"],
  ["COc1cccc(CC(=O)N2CCC(C(=O)NCCc3csc(-c4ccccc4)n3)CC2)c1", "8.89% [at 10 µM] (inactive)"],
  ["COc1ccc(N(Cc2nc(-c3cccc(Cl)c3)oc2C)S(=O)(=O)c2ccc(OC)cc2)cc1", "-8.48% [at 2.6 µM] (inactive)"],
  ["COc1ccc(-c2nc(NCc3ccccc3)c3ccccc3n2)cc1", "16.2% (inactive)"],
  ["CC(C)C#Cc1ccc([C@H]2[C@@H](CO)N3C(=O)CN(S(=O)(=O)c4ccccc4)C[C@H]23)cc1", "-8.27% [at 10 µM] (inactive)"],
  ["COc1ccc(CNc2nc(-c3ccc(OC)cc3)nc3ccccc23)cc1", "-17.8% [at 10 µM] (inactive)"],
  ["O=C(NCCc1csc(-c2ccccc2)n1)C1CCN(C(=O)Cc2ccc(Cl)cc2)CC1", "8.14% (inactive)"],
  ["CS(=O)(=O)N1CC(=O)N2[C@@H](CO)[C@H](c3ccc(C#Cc4ccc(F)cc4)cc3)[C@@H]2C1", "11.8% [at 10 µM] (inactive)"],
  ["CCOc1cc(C(=O)Nc2ccc3c(c2)CCC(=O)N3)cc(OCC)c1OCC", "7.32% (inactive)"],
  ["NCCCCCCNS(=O)(=O)c1ccc2c(Cl)cccc2c1", "23.8% (inactive)"],
  ["COC(=O)[C@@H]1C[C@@H](N(C)C)CN1S(=O)(=O)c1c(C)ccc2nsnc12", "25.5% (inactive)"],
  ["CS(=O)(=O)N1CC(=O)N2[C@H](CO)[C@@H](c3ccc(Br)cc3)[C@H]2C1", "27.1% (inactive)"],
  ["COC[C@H](N)C(=O)N1CCC(Cc2nnc(SC)n2C)CC1", "32.3% (inactive)"]
]}

###

Reported max activity values are given for each entry in this list.
Experiment: inhibitors of Toxoplasma growth in IFN-γ-primed HeLa – cell-based, ME49Luc, luciferase, 72 h, dose response (AID 1259418)
Settings: T. gondii ME49Luc in IFN-y HeLa, stronger effect = lower value, -100% = high-dose IFN-γ control wells; at 19.5 µM unless noted
Hit rate of the full screen: of about 3,400 compounds, about 840 (25%) were called active. About 11% were inconclusive and are not listed. These entries were drawn from the full list. Measured potencies and affinities stand elsewhere.

{"columns": ["COMPOUND", "max activity"],
 "data": [
  ["CC(C)(C)c1ccc(S(=O)(=O)N2CCC[C@@H]2C(=O)NCCc2csc(-c3ccccc3)n2)cc1", "-14.7% [at 0.16 µM] (inactive)"],
  ["Cc1nc(CCNC(=O)[C@H]2CCCN2S(=O)(=O)c2ccc(Cl)s2)cs1", "12.6% [at 0.16 µM] (inactive)"],
  ["CCc1ccc(S(=O)(=O)N2CCC[C@@H]2C(=O)NCCc2csc(C)n2)cc1", "-9.49% [at 0.35 µM] (inactive)"],
  ["CN(C)CC(=O)N1C[C@@H]2N[C@H](C1)C2c1ccc(C2=CCCCC2)cc1 (stereo not given in full)", "18.8% [at 9 µM] (inactive)"],
  ["CS(=O)(=O)N1CCO[C@@H]2CN(C(=O)Cc3ccccn3)CC[C@H]2C1", "-7.92% [at 0.3 µM] (inactive)"]
]}
